# SYSTEM_TESTED: Serine-protein kinase ATM (Homo sapiens, UniProt Q13315)
# Sequence (Q13315 whole entry): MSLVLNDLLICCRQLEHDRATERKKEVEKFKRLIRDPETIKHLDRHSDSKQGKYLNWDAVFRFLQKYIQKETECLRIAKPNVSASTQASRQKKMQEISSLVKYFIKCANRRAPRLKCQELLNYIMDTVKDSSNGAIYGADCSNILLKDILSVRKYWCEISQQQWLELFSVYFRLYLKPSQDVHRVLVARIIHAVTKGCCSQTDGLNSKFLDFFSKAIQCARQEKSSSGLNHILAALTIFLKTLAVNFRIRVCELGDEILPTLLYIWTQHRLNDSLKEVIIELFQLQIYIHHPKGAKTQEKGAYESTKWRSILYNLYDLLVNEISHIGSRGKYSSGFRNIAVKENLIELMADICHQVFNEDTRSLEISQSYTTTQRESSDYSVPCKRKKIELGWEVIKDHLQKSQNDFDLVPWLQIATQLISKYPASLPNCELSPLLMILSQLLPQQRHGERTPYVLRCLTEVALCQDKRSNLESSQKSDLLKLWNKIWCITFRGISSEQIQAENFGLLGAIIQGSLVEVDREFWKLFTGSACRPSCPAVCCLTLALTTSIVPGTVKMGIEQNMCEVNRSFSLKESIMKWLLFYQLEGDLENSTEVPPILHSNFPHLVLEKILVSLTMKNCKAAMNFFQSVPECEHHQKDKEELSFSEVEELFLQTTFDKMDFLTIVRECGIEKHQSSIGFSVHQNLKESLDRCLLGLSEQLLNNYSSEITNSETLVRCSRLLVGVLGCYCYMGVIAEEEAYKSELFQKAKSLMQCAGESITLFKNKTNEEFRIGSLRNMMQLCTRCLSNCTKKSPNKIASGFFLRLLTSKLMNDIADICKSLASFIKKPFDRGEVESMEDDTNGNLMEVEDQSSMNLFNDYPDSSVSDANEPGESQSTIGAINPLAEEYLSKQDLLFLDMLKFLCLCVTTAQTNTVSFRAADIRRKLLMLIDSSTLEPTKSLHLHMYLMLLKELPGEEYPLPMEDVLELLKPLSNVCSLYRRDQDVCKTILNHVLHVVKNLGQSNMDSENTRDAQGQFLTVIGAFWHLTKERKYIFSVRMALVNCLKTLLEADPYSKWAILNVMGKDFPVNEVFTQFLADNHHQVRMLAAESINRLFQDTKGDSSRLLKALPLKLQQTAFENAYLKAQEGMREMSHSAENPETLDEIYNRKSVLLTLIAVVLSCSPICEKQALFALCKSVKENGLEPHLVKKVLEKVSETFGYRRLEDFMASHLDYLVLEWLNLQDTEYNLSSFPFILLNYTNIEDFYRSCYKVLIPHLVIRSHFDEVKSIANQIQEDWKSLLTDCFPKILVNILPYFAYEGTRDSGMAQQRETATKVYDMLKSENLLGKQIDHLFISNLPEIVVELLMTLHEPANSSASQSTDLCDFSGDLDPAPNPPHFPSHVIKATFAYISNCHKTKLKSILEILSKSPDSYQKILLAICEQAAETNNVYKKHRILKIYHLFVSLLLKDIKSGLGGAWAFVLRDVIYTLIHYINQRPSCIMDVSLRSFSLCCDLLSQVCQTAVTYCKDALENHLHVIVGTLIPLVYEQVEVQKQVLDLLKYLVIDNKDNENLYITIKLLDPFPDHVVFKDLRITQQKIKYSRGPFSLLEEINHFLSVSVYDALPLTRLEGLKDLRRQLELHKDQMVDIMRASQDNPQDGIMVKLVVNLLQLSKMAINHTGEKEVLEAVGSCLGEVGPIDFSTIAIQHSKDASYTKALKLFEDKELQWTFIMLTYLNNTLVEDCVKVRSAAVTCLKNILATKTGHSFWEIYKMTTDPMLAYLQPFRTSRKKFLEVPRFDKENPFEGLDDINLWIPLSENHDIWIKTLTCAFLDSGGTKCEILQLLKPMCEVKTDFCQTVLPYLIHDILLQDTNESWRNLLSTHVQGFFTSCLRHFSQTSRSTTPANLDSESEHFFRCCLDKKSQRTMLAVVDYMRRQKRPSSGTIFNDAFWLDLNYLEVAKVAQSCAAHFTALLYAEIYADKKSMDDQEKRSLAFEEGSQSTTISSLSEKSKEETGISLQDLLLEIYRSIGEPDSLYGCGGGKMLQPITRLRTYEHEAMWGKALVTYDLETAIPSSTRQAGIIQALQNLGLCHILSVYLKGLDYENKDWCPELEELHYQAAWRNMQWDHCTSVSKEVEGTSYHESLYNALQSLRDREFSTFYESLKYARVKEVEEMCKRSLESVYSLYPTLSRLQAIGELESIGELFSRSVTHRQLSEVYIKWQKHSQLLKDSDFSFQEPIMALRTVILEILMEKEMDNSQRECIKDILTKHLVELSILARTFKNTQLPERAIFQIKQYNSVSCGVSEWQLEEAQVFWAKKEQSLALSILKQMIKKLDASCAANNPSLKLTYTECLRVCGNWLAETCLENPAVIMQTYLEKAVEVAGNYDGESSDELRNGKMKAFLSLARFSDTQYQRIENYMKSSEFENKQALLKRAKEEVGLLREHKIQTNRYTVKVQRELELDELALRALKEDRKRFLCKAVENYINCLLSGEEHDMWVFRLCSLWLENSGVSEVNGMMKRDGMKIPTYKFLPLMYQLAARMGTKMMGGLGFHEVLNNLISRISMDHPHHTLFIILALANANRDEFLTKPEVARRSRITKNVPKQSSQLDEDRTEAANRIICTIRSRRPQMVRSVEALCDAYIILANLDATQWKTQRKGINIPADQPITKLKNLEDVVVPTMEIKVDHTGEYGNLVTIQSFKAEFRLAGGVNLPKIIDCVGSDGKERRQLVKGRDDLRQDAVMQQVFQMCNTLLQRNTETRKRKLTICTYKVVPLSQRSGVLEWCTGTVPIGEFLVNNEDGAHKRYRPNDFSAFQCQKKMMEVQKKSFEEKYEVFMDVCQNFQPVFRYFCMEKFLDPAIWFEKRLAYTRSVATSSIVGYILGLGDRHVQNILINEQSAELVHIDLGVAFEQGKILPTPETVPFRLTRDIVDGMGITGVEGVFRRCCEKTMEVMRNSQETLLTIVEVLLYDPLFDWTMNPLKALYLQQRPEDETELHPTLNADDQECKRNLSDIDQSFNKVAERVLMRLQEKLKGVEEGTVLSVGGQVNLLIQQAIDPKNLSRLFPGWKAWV
# EXPERIMENT_NOTES: Inhibition of ATM in human MCF7 cells assessed as decrease in pKAP-1 level measured by In-cell western assay
# Type: cell-based
OBSERVED_PROPERTY: IC50 (µM)
Write the value in µM as a bare number.

**Q:** For the record OCCNCc1c(OCc2ccc(Cl)cc2Cl)ccc2ccccc12 , what value of IC50 is listed for Serine-protein kinase ATM (Homo sapiens, UniProt Q13315)?
**A:** 33.4

----------
# System: MCF7
# EXPERIMENT_NOTES: cells
# ASSAY_CONTEXT: Homo sapiens, MCF7, 144 h
OBSERVED_PROPERTY: pIC50
Answer as the number alone; pIC50 is minus log10 of concentration in mol/L.

**Q:** # pIC50 lookup, item COc1cc([C@@H]2c3cc4c(cc3[C@@H](O[C@@H]3O[C@@H]5CO[C@@H](C)O[C@H]5[C@H](O)[C@H]3O)[C@H]3COC(=O)[C@H]23)OCO4)cc(OC)c1O [ETOPOSIDE]
**A:** 6.25

----------
Below: a set of entries, each annotated with reported pIC50.
# System: MCF7
# EXPERIMENT_NOTES: Synergistic cytotoxicity against human MCF7 cells measured after 6 days in presence of 5 uM KU60019 by SRB assay
# Format: functional, cell-based
# ASSAY_CONTEXT: MCF7, 144 h
Please note pIC50 is a logarithmic value: minus log10 of concentration in mol/L. Answer with that number alone.

**Q:** Lab note: need pIC50 for COc1cc([C@@H]2c3cc4c(cc3[C@@H](O[C@@H]3O[C@@H]5CO[C@@H](C)O[C@H]5[C@H](O)[C@H]3O)[C@H]3COC(=O)[C@H]23)OCO4)cc(OC)c1O [ETOPOSIDE] on MCF7, anyone have it?
**A:** 7.22

Could you now look at the following compound, please?
**Q:** Form entry - test system: MCF7; read-out: pIC50; compound: CCc1c2c(nc3ccc(OC(=O)N4CCC(N5CCCCC5)CC4)cc13)-c1cc3c(c(=O)n1C2)COC(=O)[C@]3(O)CC
**A:** 5.70

----------
# System: SW480
# EXPERIMENT_NOTES: Antiproliferative activity against human SW480 cells measured after 9 days by SRB assay
# Assay type: functional, cell-based
# ASSAY_CONTEXT: SW480, 216 h
Property: pIC50; scope: individual compounds
Formally, pIC50 is defined as -log10 of the concentration c, with c in mol/L.

**Q:** What is its pIC50 for SW480? Entry: OCCNCc1c(OCc2ccc(Cl)cc2Cl)ccc2ccccc12
**A:** 5.26

**Q:** Can you handle C[C@@H]1CN(CC(=O)Nc2ccc3c(c2)Cc2cccc(-c4cc(=O)cc(N5CCOCC5)o4)c2S3)C[C@H](C)O1 next?
**A:** 5.48

----------
# Test system: SW480
# EXPERIMENT_NOTES: Antagonistic cytotoxicity against human SW480 cells measured after 3 days in presence of 5 uM KU60019 by SRB assay
# Type: functional, cell-based
# ASSAY_CONTEXT: SW480, 72 h
OBSERVED_PROPERTY: IC50 (µM)
Hi! Could you send only the number? It should be in µM, unit omitted.

**Q:** Field request: IC50 | item: COc1cc([C@@H]2c3cc4c(cc3[C@@H](O[C@@H]3O[C@@H]5CO[C@@H](C)O[C@H]5[C@H](O)[C@H]3O)[C@H]3COC(=O)[C@H]23)OCO4)cc(OC)c1O [ETOPOSIDE]
**A:** 3.8

***
**Q:** Fill in: IC50 of CCc1c2c(nc3ccc(OC(=O)N4CCC(N5CCCCC5)CC4)cc13)-c1cc3c(c(=O)n1C2)COC(=O)[C@]3(O)CC is ___
**A:** 15.4

----------
# Tested on: SW480
# EXPERIMENT_NOTES: Antiproliferative activity against human SW480 cells measured after 3 days by SRB assay
# Assay type: functional, cell-based
# ASSAY_CONTEXT: SW480, 72 h
Classify: yes when IC50 is strictly less than 10 µM; no when IC50 is not.

**Q:** Criterion: IC50 strictly below 10 µM. Is it met by OCCNCc1c(OCc2ccc(Cl)cc2Cl)ccc2ccccc12 ?
**A:** yes

**Q:** Try this compound next: O=c1cc(-c2cccc3c2Sc2ccccc2S3)oc(N2CCOCC2)c1
**A:** no

**Q:** Also need C[C@@H]1CN(CC(=O)Nc2ccc3c(c2)Cc2cccc(-c4cc(=O)cc(N5CCOCC5)o4)c2S3)C[C@H](C)O1 , thanks.
**A:** no

**Q:** What would you report for COc1ccc(C(=O)NC(=S)Nc2cccc(-c3nc4ncccc4o3)c2)cc1Cl ?
**A:** no

**Q:** Likewise for CN(C)CCCOc1ccc(-c2ccc3ncc4c(c3c2)n(C2CCOCC2)c(=O)n4C)cn1 ?
**A:** yes

**Q:** Then what about the compound CCN(CC)CCCC(C)Nc1ccnc2cc(Cl)ccc12 (stereo unspecified) ?
**A:** no
